target: wildtype HIV-1 protease (Human immunodeficiency virus type 1 group M subtype B, UniProt P04585)
The compounds listed here are annotated with their log10 of IC50.
Parameter value (number): base-10 log of IC50 in nM.

Known log10 of IC50 results, listed for orientation:
compound	log10 of IC50
COC(=O)N[C@H](C(=O)Nc1ccccc1CC[C@@H]1CN[C@H](C)[C@@H](CSc2nnc(Cn3nccc3C)o2)O1)C(c1ccccc1)c1ccccc1	0.71
N[C@H](C(=O)Nc1cccc(F)c1OC[C@@H]1CN[C@@H]2c3ccccc3C[C@@H]2O1)C(c1ccccc1)c1ccccc1	2.79
C[C@H]1O[C@H](CCc2c(F)cncc2NC(=O)[C@@H](N)C(c2ccc(F)cc2)c2ccc(F)cc2)CN[C@@H]1COC(=O)NCC(F)(F)F [Example 45]	1.38
COC(=O)N[C@H](C(=O)Nc1ccccc1CC[C@@H]1CN[C@H](C)[C@@H](CSc2nc(C)cc(C)c2C#N)O1)C(c1ccccc1)c1ccccc1	2.09
COC(=O)N[C@H](C(=O)Nc1ccccc1CC[C@@H]1CN[C@H](C)[C@@H](CSc2cnc3ccccc3n2)O1)C(c1ccccc1)c1ccccc1	0.93

Now let's try a different one.
Reported log10 of IC50, compound CCC(O)(c1cnc(SC[C@H]2O[C@H](CCc3ccccc3NC(=O)[C@@H](NC(=O)OC)C(c3ccccc3)c3ccccc3)CN[C@@H]2C)s1)C(F)(F)F (stereo partly drawn) : ____
1.25
